# reported IC50; entries follow
- target-system: human recombinant BACE1 (Homo sapiens (Human), UniProt P56817)
- Sequence (P56817 46-501): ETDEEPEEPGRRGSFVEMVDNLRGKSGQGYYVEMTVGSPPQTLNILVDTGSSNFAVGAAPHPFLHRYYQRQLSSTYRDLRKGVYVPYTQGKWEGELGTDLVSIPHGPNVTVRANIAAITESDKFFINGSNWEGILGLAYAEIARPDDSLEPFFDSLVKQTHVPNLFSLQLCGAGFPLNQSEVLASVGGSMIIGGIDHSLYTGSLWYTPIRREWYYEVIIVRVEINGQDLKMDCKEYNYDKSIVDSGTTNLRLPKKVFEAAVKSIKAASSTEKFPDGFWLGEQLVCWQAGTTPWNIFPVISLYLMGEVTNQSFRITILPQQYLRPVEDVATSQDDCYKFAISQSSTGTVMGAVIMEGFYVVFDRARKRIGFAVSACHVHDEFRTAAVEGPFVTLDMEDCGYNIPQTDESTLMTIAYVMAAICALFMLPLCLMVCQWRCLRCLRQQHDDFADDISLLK
- assay-overview: In vitro enzymatic BACE1 FRET assay
- Type: biochemical
- condition-description: read-out: IC50 IP (μM) BACE1 enzyme

# compound, IC50 (µM)
rows = [
    ("COC[C@]12C[C@H]1[C@@](C)(c1cc(Nc3ncnc4cc(C#N)cnc34)cnc1F)N=C(N)S2 [Example 846]", 0.0282),
    ("C#CCOc1cnc2c(Nc3cc(F)c(F)c([C@@]4(C)N=C(N)S[C@@]5(C#N)C[C@H]54)c3)nccc2n1 [Example 916]", 0.000515),
    ("Cc1nc(OCc2ncco2)cnc1C(=O)Nc1cc(F)c(F)c([C@@]2(C)N=C(N)S[C@@]3(C(F)F)C[C@@H]23)c1 [Example 860]", 0.00276),
    ("C[C@]1(c2cc(NC(=O)c3cnc(OCC(F)(F)F)cn3)ccc2F)N=C(N)S[C@@]2(C(=O)N3CC[C@H](F)C3)C[C@H]21 [Example 992]", 0.000776),
    ("C#C[C@H](C)Oc1cnc(C(=O)Nc2ccc(F)c([C@@]3(C)N=C(N)S[C@@]4(C(=O)NC(C)(C)CF)C[C@H]43)c2)cn1 [Example 1019]", 0.000937),
    ("C#C[C@H](C)Oc1cnc(C(=O)Nc2ccc(F)c([C@@]3(C)N=C(N)S[C@@]4(C(F)F)C[C@@H]34)c2)c(C)n1 [Example 619]", 0.00439),
    ("CNC(=O)[C@]12C[C@H]1[C@@](C)(c1cc(NC(=O)c3cnc(OCC(F)(F)F)cn3)cc(F)c1F)N=C(N)S2 [Example 701]", 0.000943),
    ("CC#CCOc1cnc2c(Nc3ccc(F)c([C@@]4(CF)N=C(N)S[C@@]5(CF)C[C@H]54)c3)nccc2n1 [Example 865]", 0.000236),
    ("C[C@]1(c2cc(Nc3ncnc4cc(OCc5ncco5)cnc34)cc(F)c2F)N=C(N)S[C@@]2(C(N)=O)C[C@H]21 [Example 918]", 0.000861),
    ("CN(C)C(=O)[C@]12C[C@H]1[C@@](C)(c1cc(NC(=O)c3cnc(OCC(F)(F)F)cn3)cc(F)c1F)N=C(N)S2 [Example 926]", 0.0021),
    ("C#CCOc1cnc(C(=O)Nc2ccc(F)c([C@@]3(C)N=C(N)S[C@@]4(C(=O)NC5CC5)C[C@H]43)c2)cn1 [Example 795]", 0.0003),
    ("COC[C@@]12SC(N)=N[C@](C)(c3cc(Nc4ncnc5cc(C#N)cnc45)ccc3F)[C@@H]1C2(F)F [Example 709]", 0.0092),
    ("COC[C@]12C[C@H]1[C@@](C)(c1cc(NC(=O)c3cnc(OCc4nc(C)no4)cn3)cc(C)c1F)N=C(N)S2 [Example 1044]", 0.001),
]
